Details: in chloroform, 284.95 K

substance smiles	solubility (mole fraction)
c1ccc(CSSCc2ccccc2)cc1	0.102

* * *

Conditions: in toluene, 308.65 K

substance smiles	solubility (mole fraction)
c1ccc(CSSCc2ccccc2)cc1	0.248

* * *

Conditions: in ethyl acetate, 293.65 K

substance smiles	solubility (mole fraction)
c1ccc(CSSCc2ccccc2)cc1	0.0667

* * *

Conditions: in chloroform, 298.65 K

substance smiles	solubility (mole fraction)
c1ccc(CSSCc2ccccc2)cc1	0.208

* * *

Conditions: in chloroform, 288.75 K

substance smiles	solubility (mole fraction)
c1ccc(CSSCc2ccccc2)cc1	0.131

* * *

Conditions: in toluene, 288.16 K

substance smiles	solubility (mole fraction)
c1ccc(CSSCc2ccccc2)cc1	0.0769

* * *

Settings: in chloroform, 308.15 K

substance smiles	solubility (mole fraction)
c1ccc(CSSCc2ccccc2)cc1	0.291

* * *

Settings: in toluene, 283.45 K

substance smiles	solubility (mole fraction)
c1ccc(CSSCc2ccccc2)cc1	0.0521

* * *

Conditions: in ethyl acetate, 298.8 K

substance smiles	solubility (mole fraction)
c1ccc(CSSCc2ccccc2)cc1	0.0963

* * *

Details: in n-hexane, 294.45 K

substance smiles	solubility (mole fraction)
c1ccc(CSSCc2ccccc2)cc1	0.00448

* * *

Settings: in n-hexane, 309.05 K

substance smiles	solubility (mole fraction)
c1ccc(CSSCc2ccccc2)cc1	0.0223

* * *

Details: in ethanol, 284.7 K

substance smiles	solubility (mole fraction)
c1ccc(CSSCc2ccccc2)cc1	0.000168

* * *

Conditions: in ethanol, 299.55 K

substance smiles	solubility (mole fraction)
c1ccc(CSSCc2ccccc2)cc1	0.0019

* * *

Settings: in ethanol, 289.45 K

substance smiles	solubility (mole fraction)
c1ccc(CSSCc2ccccc2)cc1	0.000398

* * *

Details: in ethyl acetate, 308.4 K
parameter measured: solubility (mole fraction)

substance smiles	observed measurement
c1ccc(CSSCc2ccccc2)cc1	0.164

* * *

Conditions: in ethyl acetate, 303.65 K

substance smiles	solubility (mole fraction)
c1ccc(CSSCc2ccccc2)cc1	0.131

* * *

Details: in ethyl acetate, 289.95 K
parameter measured: solubility (mole fraction)

substance smiles	observed measurement
c1ccc(CSSCc2ccccc2)cc1	0.05

* * *

Conditions: in ethanol, 303.25 K

substance smiles	solubility (mole fraction)
c1ccc(CSSCc2ccccc2)cc1	0.00301

* * *

Details: in toluene, 292.65 K

substance smiles	solubility (mole fraction)
c1ccc(CSSCc2ccccc2)cc1	0.103

* * *

Conditions: in ethanol, 308.25 K

substance smiles	solubility (mole fraction)
c1ccc(CSSCc2ccccc2)cc1	0.00524

The reported measurements were obtained from BigSolDB 2.1.
